molecular target: Phospholipid hydroperoxide glutathione peroxidase GPX4 (Homo sapiens) (UniProt P36969); assay: Primary qHTS Assay for Inhibitors of Recombinant Selenoprotein Glutathione Peroxidase 4 (GPX4) (AID 1845192); details: recombinant GPX4, GR-coupled NADPH fluorescence, 15 min; series mostly up to 50 µM; also: nearly all actives have a fitted effect of over 65% in size; also: potency is read from the fitted curve at half-maximal effect
Sequence (P36969 whole entry, looked up): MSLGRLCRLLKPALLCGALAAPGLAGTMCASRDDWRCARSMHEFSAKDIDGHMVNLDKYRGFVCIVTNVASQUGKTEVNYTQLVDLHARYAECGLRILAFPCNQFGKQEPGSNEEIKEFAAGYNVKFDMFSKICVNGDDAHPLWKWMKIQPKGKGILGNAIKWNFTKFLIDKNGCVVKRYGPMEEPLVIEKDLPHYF
Inconclusive results are not listed. Active and inactive are the calls of the source. Calls follow the shape of the dose curve; as a rule, active = well fitted inhibition curve with a large enough effect; inconclusive = small, poorly fitted or top-dose-only effect; inactive = flat fitted curve, though single readings scatter.
test readout: Potency

compound: Clc1ccc(CCCOCCCN2CCCCC2)cc1
measured value: inactive

compound: CO/N=C(\C(=O)N[C@@H]1C(=O)N2C(C(=O)O)=C(Cn3ccc(=N)n3CCO)CS[C@H]12)c1csc(N)n1
measured value: inactive

compound: CC(=O)O[C@]1(C(C)=O)CC[C@H]2[C@@H]3C=C(C)C4=CC(=O)CC[C@@H]4[C@H]3CC[C@@]21C
measured value: inactive

compound: Cc1cc2nc3c(=O)[nH]c(=O)nc-3n(C[C@@H](O)[C@@H](O)[C@@H](O)COP(=O)(O)O)c2cc1C
measured value: 2550 nM (active)

Lab note: measured Potency of Cc1oc(=O)oc1COC(=O)N1CC[C@@H](N2CC/C(=C\C3=C(C(=O)O)N4C(=O)[C@@H](NC(=O)/C(=N/O)c5nsc(N)n5)[C@H]4SC3)C2=O)C1 was 10000 nM (active)

Lab note: measured Potency of Cc1cc(C#N)cc(C)c1Oc1nc(Nc2ccc(C#N)cc2)nc(N)c1Br was inactive

Lab note: measured Potency of CO[C@H]1C[C@H](O[C@@H]2[C@H](C)O[C@H](O[C@@H]3/C(C)=C/C[C@@H]4C[C@@H](C[C@]5(C=C[C@H](C)[C@@H](C6CCCCC6)O5)O4)OC(=O)[C@@H]4C=C(C)C(O)[C@H]5OC/C(=C\C=C\[C@@H]3C)[C@]54O)C[C@@H]2OC)O[C@@H](C)[C@@H]1O (stereo partly specified) was inactive

----------
target: Nuclear receptor subfamily 1 group I member 3 (Homo sapiens); test: Primary qHTS for agonist of constitutive androstane receptor (CAR) against the NCATS DSHEA and TCM libraries (AID 1794839); details: CAR agonist reporter cells, qHTS luminescence, CAR antagonist co-added at 0.75 µM; series mostly up to 40 µM;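 also: HepG2 cells expressing human CAR with a CYP2B6 reporter plus PK11195 antagonist; luciferase reporter luminescence read with ONE-Glo; 0% is about no effect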
Results filed as inconclusive are left out. The source made the active and inactive calls. Calls come from the whole dose curve; as a rule, active = well fitted activation curve with a large enough effect; inconclusive = small, poorly fitted or top-dose-only effect; inactive = flat fitted curve, though single readings scatter.
test readout: outcome

Recorded outcome, per entry:
compound: CCCCC/C=C/C(=O)CCc1ccc(O)c(OC)c1
system tested: Nuclear receptor subfamily 1 group I member 3 (Homo sapiens)
outcome: inactive
--
compound: C[C@@H]1CC[C@]2(C)CC[C@]3(C)C(=CC(=O)C4[C@@]5(C)CC[C@@H](O)[C@](C)(C(=O)O)C5CC[C@]43C)C2[C@H]1C (some centres undefined)
system tested: Nuclear receptor subfamily 1 group I member 3 (Homo sapiens)
outcome: inactive
--
compound: CCCCCC(=O)CC
system tested: Nuclear receptor subfamily 1 group I member 3 (Homo sapiens)
outcome: inactive
--
compound: CC(=O)OC1CC2CCC1(C)C2(C)C (centres undefined)
system tested: Nuclear receptor subfamily 1 group I member 3 (Homo sapiens)
outcome: inactive
--
compound: CC(=O)OC/C=C/c1ccccc1
system tested: Nuclear receptor subfamily 1 group I member 3 (Homo sapiens)
outcome: inactive

Lab note: measured outcome of COc1cc(-c2oc3cc(O)cc(O)c3c(=O)c2O)ccc1O was inactive

Lab note: measured outcome of CCCCCCCCCCCCCC(=O)OCC(O)CO (centres undefined) was inactive

Lab note: measured outcome of C=C(C)C1CC=C(C)C(O)C1 (centres undefined) was inactive

Lab note: measured outcome of CC(C)=CCC[C@](C)(O[C@@H]1O[C@H](CO)[C@@H](O)[C@H](O)[C@H]1O)[C@H]1CC[C@]2(C)[C@@H]1[C@H](O)C[C@@H]1[C@@]3(C)CC[C@H](O[C@@H]4O[C@H](CO)[C@@H](O)[C@H](O)[C@H]4O[C@@H]4O[C@H](CO)[C@@H](O)[C@H](O)[C@H]4O)C(C)(C)[C@@H]3CC[C@]12C was inactive

----------
biological target: Voltage-gated inwardly rectifying potassium channel KCNH2 (Homo sapiens) (UniProt Q12809); assay: qHTS Assay for Small Molecule Inhibitors of the Human hERG Channel Activity (AID 588834); conditions: U2OS BacMam hERG, FluxOR thallium flux fluorescence; series mostly up to 92.2 µM;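 also: lower thallium flux fluorescence means stronger hERG block; nearly all actives have a fitted effect of over 50% in size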
Sequence (Q12809 whole entry, looked up): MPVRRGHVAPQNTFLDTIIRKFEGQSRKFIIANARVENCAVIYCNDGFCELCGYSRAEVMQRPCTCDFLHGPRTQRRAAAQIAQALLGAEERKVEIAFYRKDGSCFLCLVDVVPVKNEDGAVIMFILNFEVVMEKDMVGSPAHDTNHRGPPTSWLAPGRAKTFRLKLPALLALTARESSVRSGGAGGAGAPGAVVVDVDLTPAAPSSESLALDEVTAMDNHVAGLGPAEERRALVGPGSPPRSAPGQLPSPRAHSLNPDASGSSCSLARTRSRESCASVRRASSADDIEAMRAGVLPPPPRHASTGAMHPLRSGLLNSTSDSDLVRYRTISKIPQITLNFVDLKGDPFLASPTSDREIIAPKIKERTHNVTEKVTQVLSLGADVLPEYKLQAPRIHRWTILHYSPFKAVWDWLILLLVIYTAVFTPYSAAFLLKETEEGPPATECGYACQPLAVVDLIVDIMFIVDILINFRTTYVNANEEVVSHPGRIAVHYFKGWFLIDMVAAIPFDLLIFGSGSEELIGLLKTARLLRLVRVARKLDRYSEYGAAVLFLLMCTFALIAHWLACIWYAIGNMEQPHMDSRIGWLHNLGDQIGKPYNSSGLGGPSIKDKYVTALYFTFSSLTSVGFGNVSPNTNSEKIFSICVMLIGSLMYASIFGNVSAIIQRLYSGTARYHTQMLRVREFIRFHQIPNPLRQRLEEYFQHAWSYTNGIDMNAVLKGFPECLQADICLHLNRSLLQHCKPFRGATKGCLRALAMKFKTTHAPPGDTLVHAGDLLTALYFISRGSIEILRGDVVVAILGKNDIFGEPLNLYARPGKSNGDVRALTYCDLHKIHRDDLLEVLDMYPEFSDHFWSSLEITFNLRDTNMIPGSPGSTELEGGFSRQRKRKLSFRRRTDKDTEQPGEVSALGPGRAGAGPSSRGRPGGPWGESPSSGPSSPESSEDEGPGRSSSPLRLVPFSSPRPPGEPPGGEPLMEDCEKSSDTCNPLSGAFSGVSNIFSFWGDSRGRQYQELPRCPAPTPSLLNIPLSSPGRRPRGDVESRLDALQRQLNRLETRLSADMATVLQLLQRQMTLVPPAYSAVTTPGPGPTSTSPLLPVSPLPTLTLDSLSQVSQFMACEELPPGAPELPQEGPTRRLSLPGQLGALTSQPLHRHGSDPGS
Records with an inconclusive call do not appear. Active and inactive are the calls of the source. Calls come from the whole dose curve; as a rule, active = well fitted inhibition curve with a large enough effect; inconclusive = small, poorly fitted or top-dose-only effect; inactive = flat fitted curve, though single readings scatter.
Give your call using only these classes: active, inactive

In: Hi, sorry to bother you, what did the test record for CCCCCCCCO ?
Out: inactive

In: Hi, sorry to bother you, what did the test record for ClCCCl ?
Out: inactive

In: Hi, sorry to bother you, what did the test record for S=C1NC=NC2N=CNC12 (stereo not given) ?
Out: inactive

In: Hi, sorry to bother you, what did the test record for O=C(O)c1ccc(O)cc1O ?
Out: inactive

In: Hi, sorry to bother you, what did the test record for O=S(=O)(O)c1ccccc1 ?
Out: inactive

In: Hi, sorry to bother you, what did the test record for C=CCOC(=O)c1ccccc1C(=O)OCC=C ?
Out: inactive

In: Hi, sorry to bother you, what did the test record for O=C(/C=C/c1ccc(O)c(O)c1)O[C@@H](C(=O)O)[C@@H](OC(=O)/C=C/c1ccc(O)c(O)c1)C(=O)O ?
Out: inactive

In: Hi, sorry to bother you, what did the test record for O=C1c2ccccc2C(=O)C1c1ccc2ccccc2n1 ?
Out: inactive

In: Hi, sorry to bother you, what did the test record for c1ccc2c(c1)c1cccc3ccc4cccc2c4c31 ?
Out: inactive

In: Hi, sorry to bother you, what did the test record for COC(=O)c1ccc(C=O)cc1 ?
Out: inactive

In: Hi, sorry to bother you, what did the test record for c1ccc2c(c1)[nH]c1ccccc12 ?
Out: inactive

In: Hi, sorry to bother you, what did the test record for N#Cc1c(-c2ccccc2)no[n+]1[O-] ?
Out: active

In: Hi, sorry to bother you, what did the test record for C1OCOCO1 ?
Out: inactive

In: Hi, sorry to bother you, what did the test record for C/C=C\c1ccc(OC)cc1 ?
Out: inactive

In: Hi, sorry to bother you, what did the test record for Cc1cc(N)c2ccccc2[n+]1CCCCCCCCCCCCCC[n+]1c(C)cc(N)c2ccccc21 ?
Out: active

In: Hi, sorry to bother you, what did the test record for COC(=O)CCCCC(=O)OC ?
Out: inactive

In: Hi, sorry to bother you, what did the test record for O=C(O)c1ccccc1C(c1ccc(O)cc1)c1ccc(O)cc1 ?
Out: inactive

In: Hi, sorry to bother you, what did the test record for Cc1ccccc1C ?
Out: inactive

In: Hi, sorry to bother you, what did the test record for Cc1cccc([N+](=O)[O-])c1C ?
Out: inactive

In: Hi, sorry to bother you, what did the test record for Clc1cc(Cl)c(Cl)cc1Cl ?
Out: inactive

In: Hi, sorry to bother you, what did the test record for CCC(C)c1ccccc1O (stereo not given) ?
Out: inactive

In: Hi, sorry to bother you, what did the test record for C=CC(=C)CCC=C(C)C ?
Out: inactive

In: Hi, sorry to bother you, what did the test record for CN(C)C=O ?
Out: inactive

In: Hi, sorry to bother you, what did the test record for COC(=O)c1ccc(C)cc1 ?
Out: inactive

In: Hi, sorry to bother you, what did the test record for CC(=O)OC/C=C(\C)CCC=C(C)C ?
Out: inactive

In: Hi, sorry to bother you, what did the test record for Cc1ccc([N+](=O)[O-])c(C)c1 ?
Out: inactive

In: Hi, sorry to bother you, what did the test record for COCC(=O)O ?
Out: inactive

In: Hi, sorry to bother you, what did the test record for CC1=C2[C@H](/C=C(\C)C(=O)O)CC[C@@H](C)[C@H]2CC1 ?
Out: inactive

In: Hi, sorry to bother you, what did the test record for CCC(C)n1ncn(-c2ccc(N3CCN(c4ccc(OCC5COC(Cn6cncn6)(c6ccc(Cl)cc6Cl)O5)cc4)CC3)cc2)c1=O (stereo not given) ?
Out: inactive

In: Hi, sorry to bother you, what did the test record for CC12CCC(CC1=O)C2(C)C (stereo not given) ?
Out: inactive

----------
biological target: Rap guanine nucleotide exchange factor 3 (Homo sapiens) (UniProt O95398); test: Counterscreen qHTS for antagonist of cAMP-regulated guanine nucleotide exchange factor 3 (EPAC1) (AID 1645888); settings: Rap1B-BODIPY-GDP nucleotide exchange, fluorescence; series mostly up to 154 µM;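 also: fluorescence loss as bound BODIPY-GDP is released from Rap1B; % of control where 0% means no effect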
Sequence (O95398 whole entry, looked up): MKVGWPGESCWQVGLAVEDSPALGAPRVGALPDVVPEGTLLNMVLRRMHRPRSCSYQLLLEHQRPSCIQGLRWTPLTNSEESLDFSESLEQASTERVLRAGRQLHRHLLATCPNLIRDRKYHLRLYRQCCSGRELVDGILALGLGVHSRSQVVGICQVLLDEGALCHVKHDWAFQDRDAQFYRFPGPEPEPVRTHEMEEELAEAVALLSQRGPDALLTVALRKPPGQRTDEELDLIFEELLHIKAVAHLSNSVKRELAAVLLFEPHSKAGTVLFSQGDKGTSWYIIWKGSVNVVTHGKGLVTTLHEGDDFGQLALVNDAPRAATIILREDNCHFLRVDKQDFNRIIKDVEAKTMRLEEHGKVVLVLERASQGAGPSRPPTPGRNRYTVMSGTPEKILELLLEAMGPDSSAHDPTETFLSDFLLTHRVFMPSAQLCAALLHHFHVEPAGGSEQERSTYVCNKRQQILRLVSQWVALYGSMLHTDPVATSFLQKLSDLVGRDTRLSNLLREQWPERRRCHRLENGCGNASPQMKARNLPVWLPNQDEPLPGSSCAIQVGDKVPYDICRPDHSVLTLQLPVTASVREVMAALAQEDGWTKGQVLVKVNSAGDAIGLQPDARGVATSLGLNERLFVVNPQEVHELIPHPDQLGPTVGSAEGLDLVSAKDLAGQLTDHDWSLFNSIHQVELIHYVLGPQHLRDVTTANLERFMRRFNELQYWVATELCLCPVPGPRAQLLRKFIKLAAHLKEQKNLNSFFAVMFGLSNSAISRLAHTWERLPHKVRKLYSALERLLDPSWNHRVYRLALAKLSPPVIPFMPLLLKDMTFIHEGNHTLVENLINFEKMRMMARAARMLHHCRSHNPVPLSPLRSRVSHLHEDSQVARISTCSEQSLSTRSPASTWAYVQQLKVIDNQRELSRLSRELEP
Results filed as inconclusive are left out. Activity calls are given as the source filed them. Calls come from the whole dose curve; as a rule, active = well fitted inhibition curve with a large enough effect; inconclusive = small, poorly fitted or top-dose-only effect; inactive = no such curve, though single readings can be large or run the other way.
test readout: activity change, negative = inhibition

Recorded activity change, negative = inhibition, per entry:
molecule: O=C(N/N=C/c1c(O)n(-c2ccccc2Cl)c(=O)c2ccccc12)C1COc2ccccc2O1 (stereo unspecified)
measured value: inactive

molecule: Cc1cccc(N(Cc2ccccc2)C(=O)CSC(C)C(=O)Nc2cc(C)on2)c1 (stereo unspecified)
measured value: inactive

molecule: Cc1ccccc1Cn1nnc2c(=O)[nH]c(C3CCCN(C(=O)c4ccc(C(C)(C)C)cc4)C3)nc21 (stereo unspecified)
measured value: inactive

molecule: Cc1ccc(CN(Cc2ccco2)C(=O)c2ccco2)cc1
measured value: -4.7% [at 30.8 µM] (inactive)

molecule: Cc1ccc(OCC(=O)Nc2ccc(Cl)c(-c3nc4ccccc4[nH]3)c2)cc1C
measured value: inactive

Record for c1ccc(CNc2c(-c3cccc(SC4CCCCC4)c3)nc3ccccn23)cc1 under target or system Rap guanine nucleotide exchange factor 3 (Homo sapiens) (UniProt O95398): activity change, negative = inhibition reported as 4.85% [at 30.8 µM] (inactive)

Record for CC(=O)Nc1ccc(/C(C)=N/NC(=O)c2ccc(COc3ccccc3Cl)o2)cc1 under target or system Rap guanine nucleotide exchange factor 3 (Homo sapiens) (UniProt O95398): activity change, negative = inhibition reported as 0.248% [at 30.8 µM] (inactive)

Record for O=C1CC(c2ccccc2)=NN1c1nc(-c2ccccc2)cs1 under target or system Rap guanine nucleotide exchange factor 3 (Homo sapiens) (UniProt O95398): activity change, negative = inhibition reported as inactive
